System under test: human VAChT (Homo sapiens, UniProt Q16572)
Sequence (Q16572 whole entry): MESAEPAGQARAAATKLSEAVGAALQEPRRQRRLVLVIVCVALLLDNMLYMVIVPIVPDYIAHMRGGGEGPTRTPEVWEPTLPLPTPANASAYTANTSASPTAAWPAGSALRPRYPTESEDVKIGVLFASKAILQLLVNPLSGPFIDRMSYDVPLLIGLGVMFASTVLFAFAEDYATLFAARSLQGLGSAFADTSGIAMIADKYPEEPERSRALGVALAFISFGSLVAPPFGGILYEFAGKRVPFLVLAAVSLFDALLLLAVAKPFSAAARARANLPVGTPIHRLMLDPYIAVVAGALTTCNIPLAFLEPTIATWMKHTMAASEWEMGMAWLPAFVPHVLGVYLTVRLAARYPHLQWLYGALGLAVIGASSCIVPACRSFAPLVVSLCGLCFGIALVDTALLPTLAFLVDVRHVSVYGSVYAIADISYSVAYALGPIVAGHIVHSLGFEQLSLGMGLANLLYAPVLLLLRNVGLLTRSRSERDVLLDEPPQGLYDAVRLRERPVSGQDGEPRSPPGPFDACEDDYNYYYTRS
Method: VAChT competitive binding, displacement of
Experimental endpoint: Ki
Number first, unit second.

# return recorded Ki for input O=C(c1ccc(NCCF)cc1)C1CCN(C2Cc3ccccc3CC2O)CC1 (racemic) [(±)-7] 2.68 nM

The reported numbers originate from paper PMC5561660.
